Hey, just so you know, these numbers are from ChEMBL document CHEMBL2176951.

# Assayed system: Proteasome Macropain subunit MB1 (Homo sapiens, UniProt P28074)
# Sequence (P28074 whole entry): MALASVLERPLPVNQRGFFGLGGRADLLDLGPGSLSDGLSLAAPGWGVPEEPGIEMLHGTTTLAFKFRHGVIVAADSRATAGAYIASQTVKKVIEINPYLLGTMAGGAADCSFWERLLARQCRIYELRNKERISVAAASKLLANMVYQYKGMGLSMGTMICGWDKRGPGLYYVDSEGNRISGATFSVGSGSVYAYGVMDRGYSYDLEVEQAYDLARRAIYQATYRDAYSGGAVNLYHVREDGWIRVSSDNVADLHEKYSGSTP
# Method description: Reversible inhibition of human erythrocyte derived 20S proteasome subunit beta5 after 30 mins by fluorogenic assay
Endpoint: pIC50
Entry type: numeric. Quantity: pIC50, the -log10 of concentration in molar units.

pIC50 reading for CC(C)C[C@H](NC(=O)[C@@H](NC(=O)c1cccc(-c2ccccc2)n1)[C@@H](C)O)B(O)O [DELANZOMIB] : 8.46
